# test: relative permittivity at zero frequency (dimensionless); xn = mol fraction of the nth substance listed
# measurementSetup: 303.15 K; 101 kPa; Liquid; dielectric analyzer; x1 = 0.2
Catalogue of compounds with associated relative permittivity at zero frequency
attributeMeasured: relative permittivity at zero frequency

• CN(CCO)CCO [N-methyldiethanolamine] + O = 48.77
• OCCNCCO [diethanolamine] + O = 52.65
• OCCN(CCO)CCO [triethanolamine] + O = 49.25
• CC(O)CNCC(C)O (stereo not given) [N-(2-hydroxypropyl)-2-hydroxy-1-propanamine] + O = 41.34
• CC(C)(N)CO [2-amino-2-methylpropan-1-ol] + O = 48.24

###

# test: relative permittivity at zero frequency (dimensionless); xn = mol fraction of the nth substance listed
# measurementSetup: 303.15 K; 101 kPa; Liquid; dielectric analyzer; x1 = 0.6
attributeMeasured: relative permittivity at zero frequency

* OCCN(CCO)CCO [triethanolamine] + O | 31.48
* OCCNCCO [diethanolamine] + O | 30.57
* CC(O)CNCC(C)O (stereo not given) [N-(2-hydroxypropyl)-2-hydroxy-1-propanamine] + O | 18.46
* CN(CCO)CCO [N-methyldiethanolamine] + O | 26.68
* CC(C)(N)CO [2-amino-2-methylpropan-1-ol] + O | 26.63

###

Catalogue of compounds with associated relative permittivity at zero frequency
# test: relative permittivity at zero frequency (dimensionless); xn = mol fraction of the nth substance listed
# measurementSetup: 303.15 K; 101 kPa; Liquid; dielectric analyzer; x1 = 0.4
± gives the expanded uncertainty stated by the source.
attributeMeasured: relative permittivity at zero frequency

- CC(C)(N)CO [2-amino-2-methylpropan-1-ol] + O: 33.65 ± 0.67
- OCCN(CCO)CCO [triethanolamine] + O: 36.34 ± 0.73
- CC(O)CNCC(C)O (stereo not given) [N-(2-hydroxypropyl)-2-hydroxy-1-propanamine] + O: 24.52 ± 0.49
- CN(CCO)CCO [N-methyldiethanolamine] + O: 33.92 ± 0.68
- OCCNCCO [diethanolamine] + O: 39.11 ± 0.78

###

# test: relative permittivity at zero frequency (dimensionless); xn = mol fraction of the nth substance listed
# measurementSetup: 323.15 K; 101 kPa; Liquid; dielectric analyzer; x1 = 0.6
Rule: relative permittivity at zero frequency of 20 or more gives True; anything lower gives False.

• CN(CCO)CCO [N-methyldiethanolamine] + O = True
• OCCNCCO [diethanolamine] + O = True
• OCCN(CCO)CCO [triethanolamine] + O = True
• CC(O)CNCC(C)O (stereo not given) [N-(2-hydroxypropyl)-2-hydroxy-1-propanamine] + O = False
• CC(C)(N)CO [2-amino-2-methylpropan-1-ol] + O = True

###

# test: relative permittivity at zero frequency (dimensionless)
# measurementSetup: 318.15 K; 101.33 kPa; Liquid; dielectric analyzer
Lab note - cut at 20 for relative permittivity at zero frequency: 1 if strictly below, -1 if not.

• CC(O)CO (stereo unspecified) [1,2-propanediol] = -1
• OCCNCCO [diethanolamine] = -1
• OCCN(CCO)CCO [triethanolamine] = -1
• CC(C)(N)CO [2-amino-2-methylpropan-1-ol] = 1
• CC(O)CNCC(C)O (stereo unspecified) [N-(2-hydroxypropyl)-2-hydroxy-1-propanamine] = 1

The origin of these recorded values is the NIST ThermoML archive (doi:10.1021/je600515j).
